I'd be grateful if you could share measured GI50 for these entries.
- Tested on: SNB-19
- test: NCI tumour cell line growth inhibition, 48 h
Activity calls are given as the source filed them. No stated cut-off is given here; in the data, active = GI50 up to about 1.1 µM and inactive = higher.

Below, 4 compounds whose answers are already recorded.
compound	GI50
COc1ccc(CNc2ccn(C3OC(CO)C(O)C3O)c(=O)n2)cc1 (stereo not given)	> 100 µM (inactive)
[O-][S+]1Nc2cccc(C(F)(F)F)c2S1 (stereo not given)	67.1 µM (inactive)
COc1ccc(-c2cc(=O)c3c(OC)c(OC)c(OC)c(OC)c3o2)cc1	> 100 µM (inactive)
O=c1n(CC2CO2)c2ccccc2n1CC1CS1 (stereo not given)	> 100 µM (inactive)

Kindly review the next compound as well.
According to the records, this compound `CCc1cccc(C(C)C)c1NC1=C([n+]2ccc(C)cc2)C(=O)c2ccccc2C1=O.[O-][Cl+3]([O-])([O-])[O-]` displays GI50 of 1.83 µM (inactive)

---

- System: IGROV-1
- test: NCI tumour cell line growth inhibition, 48 h
The source made the active and inactive calls. Cut-off read from the data, not from the text of the source: active = GI50 up to about 1.1 µM and inactive = higher.
measurement-label: GI50

compound	GI50
CC1CC[C@@]2(OC1)OC1C[C@H]3[C@@H]4CC=C5CC(OC6OC(CO)C(OC7OC(CO)C(O)C(OC8OCC(O)C(O)C8O)C7OC7OC(CO)C(O)C(O)C7O)C(O)C6O)CCC5(C)[C@H]4CCC3(C)C1[C@@H]2C (stereo partly drawn)	3.94 µM (inactive)
COc1cc(/C=C2/C(=O)N(C(=O)OCC(C)C)C(Cc3cc(OC)c(OC)c(C)c3OC)C(=O)N2Cc2ccccc2)c(OC)c(C)c1OC (stereo not drawn)	> 100 µM (inactive)
COc1cc2cc(OC)c3cc4c(cc3c2c(OC)c1OC)OCO4	> 66.8 µM (inactive)
OC(c1ccc(F)cc1)C(F)(F)c1nc(-c2ccccc2)no1 (stereo not drawn)	> 100 µM (inactive)
COC(=O)NC(Cc1ccccc1)NC(=O)OC(C)(C)C (stereo not drawn)	> 100 µM (inactive)
COC(=O)/C=C1/OC(c2ccc(C)cc2C)=CC1=O	4.47 µM (inactive)
O=C1C[C@@H](Sc2ccccc2)C2(OCCO2)C2ON3CCCC[C@H]3[C@H]12 (stereo partly drawn)	5.48 µM (inactive)
C=C(C)C1CCC2=CC(CC3(C)OC3C3=CC(C(=O)OC)=C(C1)O3)OC2=O (stereo not drawn)	> 100 µM (inactive)

Count: 4. Required value per item: GI50.
1. CSc1nc2c(nc(N)n2C2OC(COC(C)=O)C(OC(C)=O)C(OC(C)=O)C2OC(C)=O)c(=O)n1C (stereo not drawn)
2. Clc1ccc2c(c1)-c1c3c(nn1-c1ccccc1)-c1ccccc1SC3O2 (stereo not drawn)
3. CC(C)(C)OC(=O)NC(CCCCNC(=O)OCc1ccccc1)C(=O)NCCNc1ccc(NCCNC(=O)C(CCCCNC(=O)OCc2ccccc2)NC(=O)OC(C)(C)C)c2c1C(=O)c1ccccc1C2=O (stereo not drawn)
4. CCN(CC)CCCNc1ccc2ncn3c4ccc(O)cc4c(=O)c1c23

1. > 100 µM (inactive)
2. > 100 µM (inactive)
3. 29.3 µM (inactive)
4. 1.39 µM (inactive)

Count: 3. Required value per item: GI50.
1. O=C(CCC(=O)Nc1cccc(C(F)(F)F)c1)CC(=O)c1ccc2ccccc2c1
2. Cc1ccc(/N=N/c2c(C)nn(-c3ccccc3)c2-c2ccccc2)c(Br)c1
3. C/C=C/C=C/C1=NN(c2cccc(S(=O)(=O)O)c2)C2(C1)C(Cl)C(=O)N2c1nc2ccccc2s1 (stereo not drawn)

> 100 µM (inactive)
> 100 µM (inactive)
11 µM (inactive)
